- Test: chemical genetic growth profiling, strain panel (AID 1159580);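 further: tested at 20 µM; growth read once vehicle control cultures reached saturation at 30 °C; lower values mean less growth of the strain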
- Condition: S. cerevisiae deletion strains, growth OD, locus YML032C, strain rad52
The campaign covered roughly 5,500 compounds. About 2,000 (36%) were called active. Inconclusive results (about 18%) are left out. No stated cut-off is given here; in the data, active means normalized growth mostly below about 0.91 (no sharp cut-off); inconclusive means no clear call, values can overlap the other calls; inactive means mostly above about 0.92. This is one part of the list.
Choose the fitting class; nothing outside active, inactive is accepted.

INSERT INTO assay_data (molecule, assigned_class) VALUES
  ('CC[C@@]1(O)C[C@H](O[C@H]2C[C@H](N(C)C)[C@H](O)[C@H](C)O2)c2c(cc3c(c2O)C(=O)c2c(O)cccc2C3=O)[C@H]1C(=O)OC', 'active'),
  ('CC[C@H]1OC(=O)[C@H](C)[C@@H](O[C@H]2C[C@@](C)(OC)[C@@H](O)[C@H](C)O2)[C@H](C)[C@@H](O[C@@H]2O[C@H](C)C[C@H](N(C)C)[C@H]2O)[C@](C)(OC)C[C@@H](C)C(=O)[C@H](C)[C@@H](O)[C@]1(C)O', 'inactive'),
  ('CC(=O)Oc1cc(OC(C)=O)c2c(c1)O[C@H](c1ccc(OC(C)=O)c(OC(C)=O)c1)[C@H](OC(C)=O)C2', 'inactive'),
  ('CC1COc2c(N3CCN(C)CC3)c(F)cc3c(=O)c(C(=O)O)cn1c23 (stereo not given)', 'inactive'),
  ('NCCC(O)C(=O)NC1CC(N)C(OC2OC(CN)C(O)C(O)C2N)C(OC2OC(CO)C(O)C2O)C1O (stereo not given)', 'inactive');

Ask: GET /call?item= C=CCc1ccc(O)c(OC)c1 returns the recorded outcome of this test.
Reply: inactive

Ask: Can you check COC(=O)[C@@H]1OC(=O)C2OC23[C@@]1(C)CCC1[C@]2(C)C(C[C@H](O)[C@]13C)C(C)(C)[C@H](OC(C)=O)C[C@@H]2OC(C)=O (stereo not given in full) next?
Reply: inactive

Ask: Can you check Cc1ncc(CNC(=O)N(CCCl)N=O)c(N)n1 next?
Reply: active

Ask: Can you check CCC1(O)CC(OC2CC(N(C)C)C(OC3CC(O)C(OC4CCC(=O)C(C)O4)C(C)O3)C(C)O2)c2c(cc3c(c2O)C(=O)c2c(O)cccc2C3=O)C1C(=O)OC (stereo not given) next?
Reply: active

Ask: Can you check O=C(Oc1cc(OC(=O)c2ccccc2)c2c(c1)O[C@H](c1ccc(OC(=O)c3ccccc3)c(OC(=O)c3ccccc3)c1)[C@@H](OC(=O)c1ccccc1)C2)c1ccccc1 next?
Reply: inactive
